# Target under test: murine IL-2 receptor βγc heterodimer (mIL-2Rβγc) (mouse) (UniProt P16297)
# Test description: SPR; mIL-2Rγ immobilised, saturating mIL-2Rβ in solution
pKd: −log10 of the molar value.
Readout type: pKd

Binder: G2_neo2_40_1F_seq30 (designed binder) PEKKRQLLLEHILLDALMLLNLLETNPQNTESKFEDYISNAEVIAEELAKLMESLGLSDEAEKFKKIKQWLREVWRIWSSTNWSTLEDKARELLNRIITTIQSQIFY
Readout value: 6.03

Binder: G2_neo2_40_1F_seq16 (designed binder) TKKKIQLLVEHALLDALMILNLSSKSNEKLNRIITTMQSWIFNGTIDPDRARELAKLVEEIRDEMEKNGIDTEDYVSNLKVILEELA
Readout value: 7.15

a = G1_neo2_40_1F_M3 (designed binder) STEKTQHAAEDALRDALMLRNLLNEPNEKLARIITTMQSWQFTEKIDGDGAQELAKEVEELQQEHEVRGIDVEDYASNLKVILLQLA
b = G2_neo2_40_1F_seq27 (designed binder) TKKKAQLLAEHALLDALMLLNLSSESNERLNRIITWLQSIIFTGTYDPDMVKEAVKLADEIEDEMRKRGIDTEDYVSNLRVILQELA
Asked: Name the one with the greater pKd value, either a or b as given. Pick one; state its label.
Given back: b
